Overview of recorded melting point for various compounds
experimental.readout: melting point

> print(dat)
                                   compound         result
1  CC(=O)Nc1ccc(/C(O)=C/C2=Nc3c(Br)cc(C)cc3C3=NCCN23)cn1.Cl [Example 1-46]       > 285 °C
2  COc1c(OCC(=O)NCc2ccc(F)cc2)ccc2c1N=C(/C=C(\O)c1cccnc1)N1CCN=C21.Cl [Example 1-31]  230 to 231 °C
3  O=C(NC1=Nc2ccccc2C2=NCCN12)c1cncc(O)c1 [Example 2-138]  273 °C (dec.)
4  O=C(NC1=Nc2c(F)cccc2C2=NCCN12)c1ccc2[nH]cnc2c1 [Example 2-101]       > 300 °C
5  Cl.O=C(NC1=Nc2cc(OCCCN3C(=O)c4ccccc4C3=O)ccc2C2=NCCN12)c1cccnc1 [Example 2-209]         247 °C
6  O=C(NC1=Nc2cc(N3CCOCC3)ccc2C2=NCCN12)c1cccnc1 [Example 2-7]         243 °C
7  Cl.O=C(NC1=Nc2cc(C(F)(F)F)ccc2C2=NCCN12)c1cccs1 [Example 2-350]         292 °C

----------
experimental.readout: melting point

> print(dat)
                               query.smiles  experimental.readout         result
1  O=C(NC1=Nc2ccccc2C2=NCCN12)c1cc(Cl)cc(Cl)c1         melting point  268 to 269 °C
2  Cl.O=C(NC1=Nc2ccc(Br)cc2C2=NCCN12)c1ccc2[nH]cnc2c1         melting point         288 °C
3  O/C(=C\C1=Nc2ccc(O)cc2C2=NCCN12)c1cccnc1         melting point  302 to 303 °C
4      O/C(=C\C1=Nc2ccccc2C2=NCCN12)c1ccoc1         melting point  155 to 156 °C
5  CC(=O)Nc1ccc(C(=O)NC2=Nc3cc(N4CCOCC4)ccc3C3=NCCN23)cc1.Cl         melting point         249 °C
6  COc1ccc(C(=O)NC2=Nc3ccccc3C3=NCCN23)cc1OC.Cl         melting point  274 °C (dec.)
7  CC(C)(C)Oc1ccc(C(=O)NC2=Nc3ccccc3C3=NCCN23)cc1         melting point       > 410 °C
8  Cc1cccc2c1N=C(/C=C(\O)c1cccnc1)N1CCN=C21.Cl         melting point       > 290 °C
